Where do these numbers come from? They come from the supplement of paper PMC10126150.

Exercise: for every item that follows, state its recorded switch fluorescence ratio.
# System: ATP;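 also: ATP exposure 15 min at 22 °C before imaging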
# Assay details: switch fluorescence ratio, 500 uM ATP over buffer (Cy3 cluster intensity, sum of 5 cycles each) (fold (ratio)); higher = stronger signal-on switching upon ATP binding; sequences stand for … in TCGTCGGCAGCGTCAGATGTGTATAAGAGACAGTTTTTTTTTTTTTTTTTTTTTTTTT…TC
# Conditions: aptamer strand: ATP DNA aptamer (quencher-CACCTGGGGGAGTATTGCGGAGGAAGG + anchor), 100 nM annealed; ATP concentration: 500 uM
Lab note: jot down the number only; don't add units.

Lookup: Tell us which switch fluorescence ratio value is on record for TTTGTTTGAA
Found: 0.962

Lookup: Tell us which switch fluorescence ratio value is on record for AATCGGTCAC
Found: 0.998

Lookup: Tell us which switch fluorescence ratio value is on record for TTAAGGTGAG
Found: 1.02

Lookup: Tell us which switch fluorescence ratio value is on record for AGGGTTGGAG
Found: 1

Lookup: Tell us which switch fluorescence ratio value is on record for AGTTAAGAT
Found: 1.01

Lookup: Tell us which switch fluorescence ratio value is on record for TTTTTTATTA
Found: 0.986

Lookup: Tell us which switch fluorescence ratio value is on record for ACGCTGCCGG
Found: 1.1

Lookup: Tell us which switch fluorescence ratio value is on record for TTCAAGCTTT
Found: 1.01

Lookup: Tell us which switch fluorescence ratio value is on record for TTTAAGCTGG
Found: 0.99

Lookup: Tell us which switch fluorescence ratio value is on record for GGTTATCTTT
Found: 0.982

Lookup: Tell us which switch fluorescence ratio value is on record for TTCCACGTTT
Found: 1.11

Lookup: Tell us which switch fluorescence ratio value is on record for GATTTGAGTG
Found: 0.959

Lookup: Tell us which switch fluorescence ratio value is on record for TGTTGGTTTG
Found: 1.08

Lookup: Tell us which switch fluorescence ratio value is on record for GGGCTAGGTA
Found: 1.01

Lookup: Tell us which switch fluorescence ratio value is on record for ACAGGACAGC
Found: 1.14

Lookup: Tell us which switch fluorescence ratio value is on record for CCGTGTTTCT
Found: 0.992

Lookup: Tell us which switch fluorescence ratio value is on record for CGAAGTACAT
Found: 1.16

Lookup: Tell us which switch fluorescence ratio value is on record for ATGGGAGATG
Found: 0.983

---

# Tested on: ATP;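 also: ATP exposure 15 min at 22 °C before imaging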
# Assay details: switch fluorescence ratio, 500 uM ATP over buffer (Cy3 cluster intensity, sum of 5 cycles each) (fold (ratio)); higher = stronger signal-on switching upon ATP binding; sequences stand for … in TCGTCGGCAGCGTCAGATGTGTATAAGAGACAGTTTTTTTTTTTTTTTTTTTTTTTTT…TC
# Conditions: aptamer strand: ATP DNA aptamer (quencher-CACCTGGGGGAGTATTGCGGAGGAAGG + anchor), 100 nM annealed; ATP concentration: 500 uM
Binary classification by switch fluorescence ratio, with 1 as an inclusive lower bound for Y; all other cases are N.

Lookup: Is reported switch fluorescence ratio greater than or equal to 1 here: TTTGCATACT
Found: Y

Lookup: Is reported switch fluorescence ratio greater than or equal to 1 here: GAATTGGAAG
Found: N

Lookup: Is reported switch fluorescence ratio greater than or equal to 1 here: GGAGGCCAGC
Found: Y

Lookup: Is reported switch fluorescence ratio greater than or equal to 1 here: GGAAAGTGAT
Found: Y

Lookup: Is reported switch fluorescence ratio greater than or equal to 1 here: AGGTTGTGTG
Found: N

Lookup: Is reported switch fluorescence ratio greater than or equal to 1 here: CCAAGCAGGG
Found: Y

Lookup: Is reported switch fluorescence ratio greater than or equal to 1 here: CGTCCTTTTT
Found: Y

Lookup: Is reported switch fluorescence ratio greater than or equal to 1 here: TGAGCGAGTG
Found: N

Lookup: Is reported switch fluorescence ratio greater than or equal to 1 here: AGATCTGGGG
Found: Y

Lookup: Is reported switch fluorescence ratio greater than or equal to 1 here: CGTTCAGTGG
Found: Y

Lookup: Is reported switch fluorescence ratio greater than or equal to 1 here: GCTCCTGTTA
Found: Y

Lookup: Is reported switch fluorescence ratio greater than or equal to 1 here: GATGGGTTGA
Found: Y

Lookup: Is reported switch fluorescence ratio greater than or equal to 1 here: AGCCGAATTC
Found: Y

Lookup: Is reported switch fluorescence ratio greater than or equal to 1 here: CTCAATAGCA
Found: Y

Lookup: Is reported switch fluorescence ratio greater than or equal to 1 here: GTCGTATGAC
Found: Y

Lookup: Is reported switch fluorescence ratio greater than or equal to 1 here: GAGGGCACTG
Found: N

Lookup: Is reported switch fluorescence ratio greater than or equal to 1 here: GAGTGTGATG
Found: N

Lookup: Is reported switch fluorescence ratio greater than or equal to 1 here: TGGGGGGCAT
Found: Y

Lookup: Is reported switch fluorescence ratio greater than or equal to 1 here: TATACACGGA
Found: Y

Lookup: Is reported switch fluorescence ratio greater than or equal to 1 here: TTGACAGGCA
Found: N

Lookup: Is reported switch fluorescence ratio greater than or equal to 1 here: CGTTTTTGCT
Found: N

Lookup: Is reported switch fluorescence ratio greater than or equal to 1 here: GACGATCCTG
Found: Y

Lookup: Is reported switch fluorescence ratio greater than or equal to 1 here: CGGGGGACTG
Found: Y

Lookup: Is reported switch fluorescence ratio greater than or equal to 1 here: GGGTCCGCGG
Found: Y

---

# Tested on: ATP;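 also: ATP exposure 15 min at 22 °C before imaging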
# Assay details: switch fluorescence ratio, 500 uM ATP over buffer (Cy3 cluster intensity, sum of 5 cycles each) (fold (ratio)); higher = stronger signal-on switching upon ATP binding; sequences stand for … in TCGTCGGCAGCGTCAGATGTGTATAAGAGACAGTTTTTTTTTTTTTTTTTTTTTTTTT…TC
# Conditions: aptamer strand: ATP DNA aptamer (quencher-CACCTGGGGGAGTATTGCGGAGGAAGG + anchor), 100 nM annealed; ATP concentration: 500 uM
Exercise: for every item that follows, state its recorded switch fluorescence ratio.
Lab note: jot down the number only; don't add units.

Lookup: Tell us which switch fluorescence ratio value is on record for ATTTGTATTG
Found: 1.01

Lookup: Tell us which switch fluorescence ratio value is on record for AGATTAAAGA
Found: 1.01

Lookup: Tell us which switch fluorescence ratio value is on record for TTTAAAATTA
Found: 0.998

Lookup: Tell us which switch fluorescence ratio value is on record for GAATGGGGGA
Found: 1.02

Lookup: Tell us which switch fluorescence ratio value is on record for CGGTTGTAGC
Found: 1

Lookup: Tell us which switch fluorescence ratio value is on record for GGGGCTAAGC
Found: 1

Lookup: Tell us which switch fluorescence ratio value is on record for GTGGCATAGC
Found: 0.981

Lookup: Tell us which switch fluorescence ratio value is on record for GCATAGCCTG
Found: 0.98

Lookup: Tell us which switch fluorescence ratio value is on record for AGTATTAGAG
Found: 0.983

Lookup: Tell us which switch fluorescence ratio value is on record for ACAATGTCT
Found: 0.996

Lookup: Tell us which switch fluorescence ratio value is on record for AGATTATTTT
Found: 1.01

Lookup: Tell us which switch fluorescence ratio value is on record for AGGGGTCAGG
Found: 1.02

Lookup: Tell us which switch fluorescence ratio value is on record for AAGGTTTTTA
Found: 0.993

Lookup: Tell us which switch fluorescence ratio value is on record for GGGGGGAATA
Found: 1

Lookup: Tell us which switch fluorescence ratio value is on record for AAATCATTGG
Found: 1.01

Lookup: Tell us which switch fluorescence ratio value is on record for TGGTGGTCGC
Found: 0.978

Lookup: Tell us which switch fluorescence ratio value is on record for AAGTCCGATA
Found: 0.994

Lookup: Tell us which switch fluorescence ratio value is on record for GTATTTGAGT
Found: 0.991

Lookup: Tell us which switch fluorescence ratio value is on record for AGGTTTGTGT
Found: 1.01

Lookup: Tell us which switch fluorescence ratio value is on record for TTACACCTTT
Found: 1.02

Lookup: Tell us which switch fluorescence ratio value is on record for ATGTTTGCTT
Found: 0.974

Lookup: Tell us which switch fluorescence ratio value is on record for TTAATTTTGT
Found: 1

Lookup: Tell us which switch fluorescence ratio value is on record for GTGGGATAGG
Found: 0.985

Lookup: Tell us which switch fluorescence ratio value is on record for ATTCGTTGG
Found: 1

Lookup: Tell us which switch fluorescence ratio value is on record for TTTATTGTTT
Found: 1

Lookup: Tell us which switch fluorescence ratio value is on record for ATAGGGAATT
Found: 1

Lookup: Tell us which switch fluorescence ratio value is on record for GTTGGTTACA
Found: 1.01

Lookup: Tell us which switch fluorescence ratio value is on record for GATGTTGTAT
Found: 1.01
